Test: self-splicing fitness, log relative to wild type (ln ratio); higher = more splicing; Tetrahymena group I intron in knt gene, E. coli kanamycin selection, DiMSum; sequences stand for … in CUCUCU…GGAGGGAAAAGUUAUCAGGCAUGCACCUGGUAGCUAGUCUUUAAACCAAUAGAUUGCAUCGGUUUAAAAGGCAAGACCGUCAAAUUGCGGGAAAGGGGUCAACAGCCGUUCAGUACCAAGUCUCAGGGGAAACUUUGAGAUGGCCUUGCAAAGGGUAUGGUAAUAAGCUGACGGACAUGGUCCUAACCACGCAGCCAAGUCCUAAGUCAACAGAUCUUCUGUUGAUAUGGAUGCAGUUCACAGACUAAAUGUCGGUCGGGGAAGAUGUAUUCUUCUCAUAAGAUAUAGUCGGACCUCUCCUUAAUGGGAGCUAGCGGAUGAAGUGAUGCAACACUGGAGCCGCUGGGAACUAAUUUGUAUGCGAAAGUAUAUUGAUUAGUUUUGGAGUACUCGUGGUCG;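 also: selection with 25 µg/mL kanamycin versus none on LB agar overnight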
Assay Conditions: 30 °C

{"Sequence Data": "CAACAGCAAUAUUACGCUCU", "self-splicing fitness (ln)": -1.33}
{"Sequence Data": "CCUGAGCAAUAUUACGAACU", "self-splicing fitness (ln)": -3.4}
{"Sequence Data": "GCGUAGCAAUAUUACGGGGA", "self-splicing fitness (ln)": -2.23}
{"Sequence Data": "GUAAAGCAAUAUUACGUAAU", "self-splicing fitness (ln)": -1.58}
{"Sequence Data": "CACAAGCAAUAUUACGACUA", "self-splicing fitness (ln)": -1.02}
{"Sequence Data": "GGCCAGCAAUAUUACGUGGA", "self-splicing fitness (ln)": -4.07}
{"Sequence Data": "CUCAAGCAAUAUUACGAAAU", "self-splicing fitness (ln)": -4.62}
{"Sequence Data": "AUUAAGCAAUAUUACGCUUC", "self-splicing fitness (ln)": -3.05}
{"Sequence Data": "CUAAAGCAAUAUUACGGCGG", "self-splicing fitness (ln)": -0.171}
